Molecular target: Hck (UniProt P08631)
Sequence (P08631 whole entry, looked up): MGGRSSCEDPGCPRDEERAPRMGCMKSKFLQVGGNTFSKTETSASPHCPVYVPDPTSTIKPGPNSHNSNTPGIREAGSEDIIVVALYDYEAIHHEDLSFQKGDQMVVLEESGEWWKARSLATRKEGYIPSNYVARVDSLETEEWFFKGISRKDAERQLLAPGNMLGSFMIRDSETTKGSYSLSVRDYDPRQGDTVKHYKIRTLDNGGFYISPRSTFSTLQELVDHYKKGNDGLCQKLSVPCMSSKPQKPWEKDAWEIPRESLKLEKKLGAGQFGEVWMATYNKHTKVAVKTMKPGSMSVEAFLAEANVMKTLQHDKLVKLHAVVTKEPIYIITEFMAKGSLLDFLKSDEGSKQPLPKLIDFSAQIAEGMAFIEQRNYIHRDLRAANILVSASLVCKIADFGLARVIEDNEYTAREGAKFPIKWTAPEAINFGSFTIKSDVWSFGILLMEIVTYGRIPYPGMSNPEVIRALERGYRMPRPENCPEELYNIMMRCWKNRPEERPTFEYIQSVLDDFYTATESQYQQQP
Experiment: phosphorylation enrichment, bacterial display (enrichment ratio); higher = better substrate or ligand; peptides without Tyr show the background
# phosphorylation enrichment annotations
experimental readout: phosphorylation enrichment

- GPIIRYDLGGA [CYP11B1_Y81_F79I]: 0.384
- QLRPGYIPIPV [BAG3_Y93]: 0.639
- PVKTPYSLKRW [BMPR2_Y979_R974P]: 0.427
- PFTRNYYVQAV [CYBA_Y87_R90Q]: 0.446
- MYDKEYYSVHN [MET_Y1234]: 0.903
- LEITWYPFDVE [RIPOR2_Y316]: 0.691
- RLLRGYDQSAF [HLA-C_Y137_YF]: 0.439
- KLKEKYEKDIA [HMGB1_Y155]: 0.473
- CLAKMYYSAVE [CP_Y539_D544E]: 0.606
- IDDNQYAYLKA [HNF4A_Y286_E285Q]: 2.12
- SLDLSYYPTSS [EMD_Y181]: 0.617
- VDSAHYQLLET [DTX3L_Y385_K386Q]: 0.709
- LQLLGHRPVFS [CHST6_Y358_Y358H_YF]: 0.957
- QRPGPYDRPGA [HNRNPH2_Y210]: 0.705
- ETWHNYHKFDS [MATR3_Y243_S240W]: 0.448
- VEDQFYRVDCF [FHL1_Y208_C209R_YF]: 0.551
- NDLMEYPKQHG [ASS1_Y163_A164P]: 0.502
- CEDGTYSPEIS [PTDSS1_Y424]: 0.595
- IHHIDYFKKTT [FGFR1_Y653_YF]: 0.52
- ANFAKYGNPNE [BCHE_Y505]: 0.362
- VECRVYAEDPY [PCCA_Y401]: 0.686
- ADKAAYLQSLN [MYH2_Y389]: 0.516
- NPQKSYFICLF [WAS_Y83_R86C_YF]: 0.448
- CFTRKYTLPPG [HSPB1_Y142]: 0.457
- FSVDSYDSSVR [KCNQ1_Y461_G460S]: 0.47
- FSGLAYTMERS [GLUD1_Y512_H507Y_YF]: 0.486
- GLAKEYIDPET [CSNK1G2_Y195]: 0.449
- RPFFLYVAFHD [SGSH_Y174]: 0.58
- RLRKYYLGKYL [KLB_Y906]: 0.571
- QDDTVYMGKVI [DCTN1_Y1244_T1249I]: 1.33
- LERDIYNREEF [HLA-DPB1_Y59_Y57D]: 1.17

====

Target: MERTK (UniProt Q12866)
Sequence (Q12866 whole entry, looked up): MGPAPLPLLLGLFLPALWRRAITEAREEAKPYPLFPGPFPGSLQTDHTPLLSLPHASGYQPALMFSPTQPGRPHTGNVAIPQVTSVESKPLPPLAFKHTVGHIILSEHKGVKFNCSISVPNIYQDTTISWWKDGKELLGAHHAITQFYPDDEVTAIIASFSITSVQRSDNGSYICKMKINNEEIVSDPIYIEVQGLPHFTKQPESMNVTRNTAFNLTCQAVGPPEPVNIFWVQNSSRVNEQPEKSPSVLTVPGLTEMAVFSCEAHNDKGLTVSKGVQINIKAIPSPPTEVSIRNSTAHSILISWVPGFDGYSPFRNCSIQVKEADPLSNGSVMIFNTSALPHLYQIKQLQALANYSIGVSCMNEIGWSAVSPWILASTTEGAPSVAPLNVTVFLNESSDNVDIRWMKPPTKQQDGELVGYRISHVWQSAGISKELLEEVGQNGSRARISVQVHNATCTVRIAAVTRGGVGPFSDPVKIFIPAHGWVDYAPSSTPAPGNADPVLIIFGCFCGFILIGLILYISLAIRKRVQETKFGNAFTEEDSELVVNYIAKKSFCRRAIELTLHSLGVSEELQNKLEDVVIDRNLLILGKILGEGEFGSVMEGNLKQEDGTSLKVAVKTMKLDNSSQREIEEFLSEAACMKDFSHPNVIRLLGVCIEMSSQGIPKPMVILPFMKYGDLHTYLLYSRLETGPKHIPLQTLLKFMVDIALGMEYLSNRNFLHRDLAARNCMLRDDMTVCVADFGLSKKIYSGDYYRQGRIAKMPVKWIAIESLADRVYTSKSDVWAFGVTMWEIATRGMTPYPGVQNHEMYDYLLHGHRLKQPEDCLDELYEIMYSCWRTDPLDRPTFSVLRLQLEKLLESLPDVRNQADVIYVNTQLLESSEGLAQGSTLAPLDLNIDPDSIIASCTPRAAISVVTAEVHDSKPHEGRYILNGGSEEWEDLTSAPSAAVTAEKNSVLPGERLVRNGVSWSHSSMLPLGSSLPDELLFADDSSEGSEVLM
Experiment: phosphorylation enrichment, bacterial display (enrichment ratio); higher = better substrate or ligand; peptides without Tyr show the background
Recorded phosphorylation enrichment, one value per entry.
experimental readout: phosphorylation enrichment

* SMAKFYASEIA [ACADSB_Y373_YF] | 0.437
* IQVNAYFSPIH [ADSL_Y432_D430N] | 0.589
* LRSELYSLIAR [PHIP_Y16_F17S] | 11
* NPQKSYFIHLY [WAS_Y83_R86H] | 0.424
* GPIIRYDLGGA [CYP11B1_Y81_F79I] | 0.477
* NHYKIHNLCAE [PTEN_Y68_Y68H] | 0.435
* RSAGKYDVFLI [MECP2_Y120_YF] | 0.561
* LQFKNYQQLFD [MAN2A1_Y442] | 0.358
* SLNEGYAKDFD [FBP1_Y216_R218K] | 0.437
* ELQGTYTSLQQ [KIF3C_Y574_R571Q] | 0.641
* IDDNQYAYLKA [HNF4A_Y286_E285Q] | 0.876
* FSGLAYTMERS [GLUD1_Y512_H507Y_YF] | 0.364
* DVFRQYASLRG [GANAB_Y379_T383R] | 0.384
* VTQEPYELYCE [CBL_Y368_Q367P] | 0.461
* AFLQTYAHEVS [PCDHGA5_Y753_S754A] | 0.503
* FIRRDYEACKA [BBS4_Y48_K46R_YF] | 0.4
* LFEDHYLLGTS [ASS1_Y87_R86H_YF] | 0.384
* GSSKIYFLHAD [TLR5_Y108_P112A] | 0.797
* GGTPLYRDRQG [AGXT_Y194_M195R] | 0.364
* EVASVYQSYQP [MAVS_Y92] | 0.569
* MFKPMYALFRT [HUWE1_Y4078_N4075K] | 2.87
* DQNVEYKGTVS [FHL1_Y117_W122S] | 0.452
* SIKNKYVTALF [KCNH2_Y611_D609N_YF] | 0.41
* VCDSNYSASRW [LRP5_Y1552_D1551N] | 0.426
* CFTRKYTLPPG [HSPB1_Y142] | 0.42

====

Test system: c-Src
Assay: phosphorylation enrichment, bacterial display (enrichment ratio); higher = better substrate or ligand; peptides without Tyr show the background
Criterion: phosphorylation enrichment meeting or surpassing 0.5. Met: class 1. Not met: class 0.

* QPEDIYHQTWA [GBA_Y244_G241E] | class 1
* LSAPEYGPKLK [TBC1D14_Y46] | class 0
* QNRELYSEGLG [CNKSR1_Y665] | class 0
* MDYRSYPHEYG [RBM10_Y44_R46H] | class 1
* QLRPGYIPIPV [BAG3_Y93] | class 1
* CERLPYDANKW [FLT1_Y815_S818N] | class 0
* FPKARYHWLVL [APTX_Y214_YF] | class 0
* GHGEEYPAAGA [NOTCH3_Y2221] | class 0
* RRNTFYASIAK [ACADM_Y353_YF] | class 1
* WNDLDYMDSRR [GAA_Y407] | class 1
* NGSKAYAFVHF [PABPC5_Y147_G146A_YF] | class 0
* DEEEEYEFMNR [ERBB3_Y1197_D1194E_YF] | class 1
* GESKDYALHAG [SVIL_Y185_V189A] | class 0
* AGDGRYEVLFL [SEMA3F_Y478_A474G] | class 1
* LIHLHYIRRDF [BBS4_Y43_K46R_YF] | class 0
* GVSFIYTIDGS [DCX_Y105_R102S_YF] | class 1
* FEGAIYRKDVG [GART_Y417] | class 0
* ATGMEYLASQK [FGFR2_Y616_R612T] | class 0
* SHLLRYLSWTV [CLCNKB_Y93] | class 0
* FYVVRYCWLRR [MPZ_Y181] | class 1
* ETDSEYVKLAK [C7orf57_Y70] | class 0
* IRKAEYPFSSE [ATP2C1_Y452] | class 0
* YLENYYDLKKD [MMP3_Y42] | class 1
* MSYDRYMAICH [OR2A5_Y123] | class 0
* DNLNNYVFQGQ [GRIN2A_Y978] | class 1
* VNKIYYPDFIV [LIG3_Y768] | class 1
* RLLRGHDQSAY [HLA-C_Y137_Y137H] | class 0
* TEDELYQLFLQ [RASGRP2_Y378_S381F] | class 1
* VECRVYAEDPY [PCCA_Y401] | class 1
* CVAARYMDMKG [WFIKKN2_Y93_V96M] | class 0
* KDKLPYLFDDP [GPX2_Y125_P126L_YF] | class 1

====

Target: SHP2-C SH2;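 also: peptide library displayed on the E. coli surface as eCPX fusions, selected cells deep-sequenced, score is each peptide's frequency after selection divided by its frequency in the input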
Experiment: SH2 binding enrichment of the phosphorylated peptide, bacterial display (enrichment ratio); higher = better substrate or ligand; peptides without Tyr show the background
Field: class. Source value: SH2 binding enrichment. Ranges: Low (below 0.8), Mid (0.8 to below 1), High (1 or more)

* SNYRAYATEPQ [TNNI3_Y29_H34Q] | Low
* HVKHNYECLVY [XRCC5_Y416_I412V] | Mid
* FSGLAYTMERS [GLUD1_Y512_H507Y_YF] | Mid
* SSFSGYIMMPN [LEF1_Y114_YF] | High
* MFNPCYGLFEF [NEDD4L_Y680_Y679C_YF] | Low
* PARLEYYENEK [IRS1_Y46] | High
* LTTEAYEWEPC [ELMOD3_Y61_R66C] | Mid
* PIDLFYLMDLS [ITGB2_Y131_YF] | Mid
* YGLPRYRWLTH [TSPAN12_Y143] | Low
* DPHQQYYIAMD [TBX15_Y159] | Low
* VLPIDYFFPPQ [AR_Y552_YF] | Mid

====

Test system: c-Src
Experiment: phosphorylation enrichment, bacterial display (enrichment ratio); higher = better substrate or ligand; peptides without Tyr show the background
So basically: phosphorylation enrichment at 0.6 or higher? That is Fulfilled. Lower than 0.6? That is Not fulfilled.

* VNYGAYINDFK [GLB1_Y488] | Fulfilled
* PTTKTYFPHFG [HBA1_Y43_D48G] | Fulfilled
* KMTGRYEMYAR [UPB1_Y362] | Not fulfilled
* FADIAYNYHHG [PAH_Y166_R169H] | Fulfilled
